system: TT cells (RET C634W); experiment: Cell viability assay; format: cell-based; conditions: Homo sapiens, 96 h, read-out: IC50 (cell viability)
readout.name: IC50 (nM)
Field: numeric (nM). Do not append units.

COc1cc2nccc(Oc3ccc(NC(=O)C4(C(=O)Nc5ccc(F)cc5)CC4)cc3)c2cc1OC [cabozantinib]; 77

Okay, next one:
Request: Provide TT cells (RET C634W) IC50 reading for `CCc1cc2c(cc1N1CCC(N3CCOCC3)CC1)C(C)(C)c1[nH]c3cc(C#N)ccc3c1C2=O` .
Result: 90
